Molecular target: catalytic domain of phosphodiesterase 4B enzyme cloned from human brain (Homo sapiens, UniProt Q07343)
Construct: the catalytic domain of phosphodiesterase 4B enzyme; purchased Scottish Biomedical
Sequence (Q07343 330-659 limits assumed): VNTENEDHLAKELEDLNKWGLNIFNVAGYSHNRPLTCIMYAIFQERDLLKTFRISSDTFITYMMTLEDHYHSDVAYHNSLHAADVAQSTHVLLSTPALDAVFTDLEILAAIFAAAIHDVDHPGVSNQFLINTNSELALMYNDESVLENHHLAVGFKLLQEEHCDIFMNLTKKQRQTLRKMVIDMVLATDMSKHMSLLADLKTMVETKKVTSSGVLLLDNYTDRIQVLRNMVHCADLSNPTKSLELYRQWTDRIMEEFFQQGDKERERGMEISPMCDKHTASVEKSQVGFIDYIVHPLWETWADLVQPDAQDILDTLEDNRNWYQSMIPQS
Assay: PDE4 inhibition assay (PDELight)
Format: biochemical
Conditions: 5 uM cAMP; read-out: PDE 4 Inhibition (IC50 in μM)
Experimental: In a 96-well plate, the catalytic domain of phosphodiesterase 4B enzyme (40 mU/well) cloned from human brain (Scottish Biomedical) was combined with 5 uM cAMP substrate (Sigma). […] Using a PDELight® kit (Cambrex), the amount of AMP produced in the reaction from the hydrolysis of cAMP was quantified using PDELight AMP Detection Reagent which converts the AMP directly to ATP. The assay uses luciferase, which catalyses the formation of light from the newly formed ATP and luciferin. […]
readout kind: IC50 (µM)

Example molecules with recorded IC50:
molecule	IC50 (µM)
CC(C)c1nn2ccccc2c1-c1cnc(N)nc1 [AV1203]	9.9
c1ccn2nc(C3CC3)c(-c3ccnc(NC4CC4)n3)c2c1 [AV1200]	2.7

(P) CC(C)c1nn2ccccc2c1-c1ccnc(NC2CCCC2)n1 [AV1154]
(Q) CC(C)c1nn2ccccc2c1-c1ccc(NC2CCCC2)nc1 [AV1199]
Dear colleague, could you let me know whether P or Q has the lower recorded IC50? Thanks. Mark your selection by writing its label.
P

* * *

experiment: Oral pharmacokinetic evaluation; format: in vivo, rat; conditions: male, rat; Sprague-Dawley rats, 15 mg/kg oral gavage, plasma; read-out: Oral PK AUClast
Each record here notes measured AUC(0-t).

Here is how some molecules turned out for AUC(0-t).
molecule	AUC(0-t)
Fc1cccc(-c2nn3ccccc3c2-c2ccnc(NC3CCCC3)n2)c1 [AV1180]	160 ng·h/mL
c1ccn2ncc(-c3ccnc(NC4CCCC4)n3)c2c1 [AV1165]	< 5 ng·h/mL

Please look at the following molecule next.
Item Cc1cccc2c(-c3ccnc(NC4CCCC4)n3)cnn12 [AV1184] : provide AUC(0-t)
< 10 ng·h/mL

* * *

Molecular target: recombinant full length human JNK2 enzyme (Homo sapiens)
Construct: recombinant full length human JNK2 or JNK3 enzyme; purchased Upstate; host or cells: Sf21 cells
Sequence (P45984 whole entry): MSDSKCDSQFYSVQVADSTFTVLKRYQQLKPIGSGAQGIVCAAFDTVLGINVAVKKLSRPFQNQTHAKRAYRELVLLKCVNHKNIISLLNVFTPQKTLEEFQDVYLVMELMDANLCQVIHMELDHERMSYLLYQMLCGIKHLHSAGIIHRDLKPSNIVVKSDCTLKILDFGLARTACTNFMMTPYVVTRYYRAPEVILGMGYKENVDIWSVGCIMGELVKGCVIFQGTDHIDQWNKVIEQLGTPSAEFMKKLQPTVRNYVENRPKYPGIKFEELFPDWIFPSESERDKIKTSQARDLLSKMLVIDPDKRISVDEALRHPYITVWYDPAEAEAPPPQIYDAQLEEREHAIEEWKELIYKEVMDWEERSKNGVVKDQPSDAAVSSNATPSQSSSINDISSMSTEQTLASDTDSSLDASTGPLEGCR
Experiment: JNK 2 inhibition assay (ATP depletion, luciferase)
Format: biochemical
Conditions: 10 uM ATP, ATF2 substrate; read-out: JNK 2 Inhibition (IC50 in μM)
Method: In a 96-well plate, recombinant full length human JNK2 or JNK3 enzyme (40 ng) expressed in Sf21 cells (Upstate) was incubated with the substrate ATF2 (3 uM) for 1 hour in the presence of 10 uM ATP. […] IC50 calculations were plotted using a nonlinear regression curve fit.
readout kind: IC50 (µM)

Sample answers from the record:
chemical smiles	test target	IC50, µM
Cc1cccc2c(-c3ccnc(NC(C)C)n3)c(C(C)C)nn12	recombinant full length human JNK2 enzyme (Homo sapiens)	8.1
CCCNc1nccc(-c2cnn3ccccc23)n1	recombinant full length human JNK2 enzyme (Homo sapiens)	1.3
c1ccn2nc(C3CC3)c(-c3ccnc(NC4CC4)n3)c2c1	recombinant full length human JNK2 enzyme (Homo sapiens)	1.6
c1ccn2nc(C3CC3)c(-c3ccnc(NC4CCCC4)n3)c2c1	recombinant full length human JNK2 enzyme (Homo sapiens)	1.4
CC(C)Cc1nn2ccccc2c1-c1ccnc(NC(C)C)n1	recombinant full length human JNK2 enzyme (Homo sapiens)	3

(I) CC(C)Cc1nn2ccccc2c1-c1ccnc(NC2CCCC2)n1
(II) CC(C)Nc1nccc(-c2c(C(C)C)nn3ccccc23)n1
(III) CC(C)Nc1nccc(-c2c(-c3ccccc3)nn3ccccc23)n1
Arrange items by their IC50 values in increasing order. Returns: the labels arranged in the requested order.
III, II, I
(III: 0.1 µM, II: 1.6 µM, I: 2.8 µM)

* * *

biological target: catalytic domain of phosphodiesterase 4B enzyme cloned from human brain (Homo sapiens, UniProt Q07343); construct: the catalytic domain of phosphodiesterase 4B enzyme; purchased Scottish Biomedical; experiment: PDE4 inhibition assay (PDELight); format: biochemical; conditions: 5 uM cAMP; read-out: PDE 4 Inhibition (IC50 in μM)
readout kind: IC50 (µM)

molecule	IC50 [µM]
c1ccn2nc(C3CC3)c(-c3ccnc(NC4CCCC4)n3)c2c1 [AV1198]	3.4

(P) CC(C)Nc1ncc(-c2c(C(C)C)nn3ccccc23)cn1 [AV1206]
(Q) c1ccn2ncc(-c3ccnc(NC4CCCC4)n3)c2c1 [AV1165]
Identify the item whose IC50 is the smaller number: P or Q Indicate your choice by writing its label.
Q

* * *

target: recombinant full length human JNK2 enzyme (Homo sapiens); construct: recombinant full length human JNK2 or JNK3 enzyme; purchased Upstate; host or cells: Sf21 cells; experiment: JNK 2 inhibition assay (ATP depletion, luciferase); assay type: biochemical; settings: 10 uM ATP, ATF2 substrate; read-out: JNK 2 Inhibition (IC50 in μM)
readout kind: IC50 (µM)

Consider the worked cases shown below.
compound	test target	IC50 [µM]
CC(C)CNc1nccc(-c2cnn3ccccc23)n1 [AV1167]	recombinant full length human JNK2 enzyme (Homo sapiens)	1.5
CC(C)Nc1nccc(-c2c(C3CC3)nn3ccccc23)n1 [AV1173]	recombinant full length human JNK2 enzyme (Homo sapiens)	0.3
c1ccn2ncc(-c3ccnc(NC4CCCC4)n3)c2c1 [AV1165]	recombinant full length human JNK2 enzyme (Homo sapiens)	0.4

(a) Brc1cccc(-c2nn3ccccc3c2-c2ccnc(NC3CCCC3)n2)c1 [AV1195]
(b) CC(C)Nc1nccc(-c2cnn3ccccc23)n1 [AV1164]
Which is greater in IC50, the first item a or the second item b ? When you have decided, please share the label of that item.
b
